test: Binding affinity to 16S RNA by surface plasmon resonance
Each record here notes measured Kd.
The figure you give is taken to be in µM; do not add the unit.

smiles structure	Kd [µM]
Cc1cn([C@H]2C[C@H](OP(=O)(O)OC[C@H]3O[C@@H](n4cc(C)c(=O)[nH]c4=O)C[C@@H]3O)[C@@H](C(=O)NCCCCCCN[C@H]3[C@@H](O)[C@H](N)C[C@H](N)[C@H]3O[C@H]3O[C@H](CN)[C@@H](O)[C@H](O)[C@H]3N)O2)c(=O)[nH]c1=O	208
Cc1cn([C@H]2C[C@H](O)[C@@H](COP(=O)(O)O[C@H]3C[C@H](n4ccc(=O)[nH]c4=O)O[C@@H]3C(=O)NCCN[C@H]3[C@@H](O)[C@H](N)C[C@H](N)[C@H]3O[C@H]3O[C@H](CN)[C@@H](O)[C@H](O)[C@H]3N)O2)c(=O)[nH]c1=O	352
Cc1cn([C@H]2C[C@H](OP(=O)(O)OC[C@H]3O[C@@H](n4ccc(=O)[nH]c4=O)C[C@@H]3O)[C@@H](C(=O)NCCN[C@H]3[C@@H](O)[C@H](N)C[C@H](N)[C@H]3O[C@H]3O[C@H](CN)[C@@H](O)[C@H](O)[C@H]3N)O2)c(=O)[nH]c1=O	227

// moving on: another record for Kd
Would you mind telling me what Kd value was observed for Cc1cn(CC(=O)N(CCNC(=O)CN(CCN)C(=O)Cn2ccc(=O)[nH]c2=O)CC(=O)NCCN[C@H]2[C@@H](O)[C@H](N)C[C@H](N)[C@H]2O[C@H]2O[C@H](CN)[C@@H](O)[C@H](O)[C@H]2N)c(=O)[nH]c1=O ? 11
